- Test system: NCI-H1963
- assay-remarks: Venetoclax cell killing (CellTiter-Glo)
- Assay type: cell-based
- conditions: Homo sapiens, NCI-H1963, 24 h; Lung; 10% FBS; 1 day
result-type: IC50 (µM)
Report as a plain number; the unit µM is understood.

CC1(C)CCC(CN2CCN(c3ccc(C(=O)NS(=O)(=O)c4ccc(NCC5CCOCC5)c([N+](=O)[O-])c4)c(Oc4cnc5[nH]ccc5c4)c3)CC2)=C(c2ccc(Cl)cc2)C1 [Compound (I), venetoclax] tested on NCI-H1963 gave IC50: 4.59

###

- System: HCT-116
- assay-remarks: Venetoclax cell killing (CellTiter-Glo)
- Type: cell-based
- conditions: Homo sapiens, HCT-116, 120 h; Colorectal; 10% FBS; 5 days
- Procedure: Solid tumor cell lines were obtained from American Type Culture Collection (ATCC, Manassas, Va.) or the National Cancer Institute (NCI) and cultured in humidified incubators at 37° C. […] After 1 to 5 days of culture in the presence of venetoclax, cell viability was assessed using CellTiter-Glo® reagent (Promega). IC50 values were determined by non-linear regression analysis of the concentration response data (Table 5 and Table 6).
pIC50: −log10 of the molar value.
result-type: pIC50

Sample CC1(C)CCC(CN2CCN(c3ccc(C(=O)NS(=O)(=O)c4ccc(NCC5CCOCC5)c([N+](=O)[O-])c4)c(Oc4cnc5[nH]ccc5c4)c3)CC2)=C(c2ccc(Cl)cc2)C1 [Compound (I), venetoclax] ; pIC50 observed: < 5.00

###

- Test system: NCI-H524
- assay-remarks: Venetoclax cell killing (CellTiter-Glo)
- Type: cell-based
- conditions: Homo sapiens, NCI-H524, 24 h; Lung; 10% FBS; 1 day
pIC50: −log10 of the molar value.
result-type: pIC50

get_value(item= "CC1(C)CCC(CN2CCN(c3ccc(C(=O)NS(=O)(=O)c4ccc(NCC5CCOCC5)c([N+](=O)[O-])c4)c(Oc4cnc5[nH]ccc5c4)c3)CC2)=C(c2ccc(Cl)cc2)C1" , readout=pIC50) returns < 5.00
